Values compiled from patent US20240343810A1.

Target or system: T1, Biotinylated human ICOS protein (human, UniProt Q9Y6W8 21-140, limits assumed, biotinylated (sites not given))
T1 construct: Captured on the NLC chip in the avidity SPR
T1 sequence: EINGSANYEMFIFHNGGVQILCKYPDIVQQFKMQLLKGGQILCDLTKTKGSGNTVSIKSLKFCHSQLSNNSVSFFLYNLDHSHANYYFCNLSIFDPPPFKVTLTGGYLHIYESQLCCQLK
Assay comment: SPR ProteOn avidity format, biotinylated human ICOS on NLC chip, antibody analyte, 25 C
Entries and their koff
Express the result in s⁻¹ but write the number alone.

Consider the following illustrative entries.
* STIM001_289_LAGA (bispecific antibody, V domains shown, not shown: a dimerising Fc or GST) VH: QVQVVQSGAEVKKPGASVKVSCKASGYTFSTFGITWVRQAPGQGLEWMGWISAYNGDTNYAQNLQGRVIMTTDTSTSTAYMELRSLRSDDTAVYYCARSSGHYYYYGMDVWGQGTTVTVSS VL: DIVMTQSPLSLPVTPGEPASISCRSSQSLLHSNEYNYLDWYLQKPGQSPQLLIFLGSNRASGVPDRFSGSGSGTDFTLKITRVEAEDVGIYYCMQSLQTPLTFGGGTKVEIK | 0.000354
* STIM003_457_LAGA (bispecific antibody, V domains shown, not shown: a dimerising Fc or GST, LAGA variant of STIM003_457) VH: EVQLVESGGGVVRPGGSLRLSCVASGVTFDDYGMSWVRQAPGKGLEWVSGINWNGGDTDYSDSVKGRFTISRDNAKNSLYLQMNSLRAEDTALYYCARDFYGSGSYYHVPFDYWGQGILVTVSS VL: EIVLTQSPGTLSLSPGERATLSCRASQSVSRSYLAWYQQKRGQAPRLLIYGASSRATGIPDRFSGDGSGTDFTLSISRLEPEDFAVYYCHQYDMSPFTFGPGTKVDIK | 0.000232

Alright, here's another binder for you.
Incoming: Give its koff value. Item: STIM003_289_LAGA (bispecific antibody, V domains shown, not shown: a dimerising Fc or GST, LAGA variant of STIM003_289) VH: EVQLVESGGGVVRPGGSLRLSCVASGVTFDDYGMSWVRQAPGKGLEWVSGINWNGGDTDYSDSVKGRFTISRDNAKNSLYLQMNSLRAEDTALYYCARDFYGSGSYYHVPFDYWGQGILVTVSS VL: EIVLTQSPGTLSLSPGERATLSCRASQSVSRSYLAWYQQKRGQAPRLLIYGASSRATGIPDRFSGDGSGTDFTLSISRLEPEDFAVYYCHQYDMSPFTFGPGTKVDIK
Outgoing: 0.000278
